Attribution: ChEMBL document CHEMBL4354834

Assay: Oral bioavailability in cynomolgus monkey at 1.33 mg/kg
Type: ADME, organism-based, Macaca fascicularis
Settings: in vivo
Property measured: bioavailability (%)
The reply should contain only the number, in %.

# input Form field: reported bioavailability of "COC(=O)Nc1ccc2c(c1)NC(=O)[C@H](C)CCC[C@H](NC(=O)c1cnn(-c3cccc(Cl)c3F)c1C)c1cc-2ccn1.O=C(O)C(F)(F)F"
# output 4

---

What fraction unbound was measured for each of the following?
Test: Protein binding in dog
Type: ADME, Canis lupus familiaris
Settings: read-out: PB (converted)

# input Name the reported fraction unbound value associated with the molecule "COC(=O)Nc1ccc2c(c1)NC(=O)[C@H](C)CCC[C@H](NC(=O)c1nnn(-c3cccc(Cl)c3F)c1C)c1cc-2ccn1.O=C(O)C(F)(F)F"
# output 0.038

# input Entry under review: "COC(=O)Nc1ccc2c(c1)NC(=O)[C@H](C)CCC[C@H](NC(=O)c1cnn(-c3cccc(Cl)c3F)c1C)c1cc-2ccn1.O=C(O)C(F)(F)F" . Reported fraction unbound?
# output 0.05

# input Quick one: fraction unbound for "COC(=O)Nc1ccc2c(c1)NC(=O)[C@H](C)CCC[C@H](NC(=O)c1ncn(-c3cccc(Cl)c3F)c1C)c1cc-2ccn1.O=C(O)C(F)(F)F.O=C(O)C(F)(F)F" ?
# output 0.043

---

Assay: Metabolic stability in dog liver microsomes assessed as half life
Format: ADME, Canis lupus familiaris, Microsome
Please go through the items and note down their half-life.

# input Field request: half-life | item: "COC(=O)Nc1ccc2c(c1)NC(=O)[C@H](C)CCC[C@H](NC(=O)c1cnn(-c3cccc(Cl)c3F)c1C)c1cc-2ccn1.Cl"
# output > 2 h

# input Reported half-life for "COC(=O)Nc1ccc2c(c1)NC(=O)[C@H](C)CCC[C@H](NC(=O)c1cnn(-c3cccc(Cl)c3F)c1C)c1nc-2c[nH]1" : what is it?
# output 0.933 h

# input Could you tell me which half-life is on file for "COC(=O)Nc1ccc2c(c1)NC(=O)[C@H](C)CCC[C@H](NC(=O)c1nnn(-c3cccc(Cl)c3F)c1C)c1cc-2ccn1.Cl" ?
# output 1.97 h

# input Query: half-life; subject: "COC(=O)Nc1ccc2c(c1)NC(=O)[C@H](C)CCC[C@H](NC(=O)c1ncn(-c3cccc(Cl)c3F)c1C)c1cc-2ccn1.Cl.Cl"
# output 1.22 h

---

Biological target: Coagulation factor X (Homo sapiens, UniProt P00742)
Sequence (P00742 41-179 limits assumed): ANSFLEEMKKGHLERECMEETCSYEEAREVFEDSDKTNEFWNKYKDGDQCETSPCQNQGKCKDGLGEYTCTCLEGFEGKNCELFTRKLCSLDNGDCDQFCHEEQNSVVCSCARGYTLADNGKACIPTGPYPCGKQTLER
Sequence (P00742 235-488 limits assumed): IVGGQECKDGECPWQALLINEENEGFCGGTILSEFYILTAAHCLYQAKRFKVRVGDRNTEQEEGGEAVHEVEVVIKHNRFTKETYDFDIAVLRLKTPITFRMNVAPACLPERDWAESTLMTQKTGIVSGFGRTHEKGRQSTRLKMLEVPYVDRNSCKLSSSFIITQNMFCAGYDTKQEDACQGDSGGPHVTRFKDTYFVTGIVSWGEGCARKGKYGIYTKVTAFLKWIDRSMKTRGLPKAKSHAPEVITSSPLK
Assay: Inhibition of activated human coagulation factor X using N-benzoyl-Ile-Glu-OH-OMe-Gly-Arg-pNA as substrate by spectrophotometry
Property measured: Ki

# input # lookup: Ki of "COC(=O)Nc1ccc2c(c1)NC(=O)[C@H](C)CCC[C@H](NC(=O)c1ncn(-c3cccc(Cl)c3F)c1C)c1cc-2ccn1.Cl.Cl"
# output > 13.3 µM

---

Target: UniProt:P03951
Sequence (P03951 19-387 limits assumed): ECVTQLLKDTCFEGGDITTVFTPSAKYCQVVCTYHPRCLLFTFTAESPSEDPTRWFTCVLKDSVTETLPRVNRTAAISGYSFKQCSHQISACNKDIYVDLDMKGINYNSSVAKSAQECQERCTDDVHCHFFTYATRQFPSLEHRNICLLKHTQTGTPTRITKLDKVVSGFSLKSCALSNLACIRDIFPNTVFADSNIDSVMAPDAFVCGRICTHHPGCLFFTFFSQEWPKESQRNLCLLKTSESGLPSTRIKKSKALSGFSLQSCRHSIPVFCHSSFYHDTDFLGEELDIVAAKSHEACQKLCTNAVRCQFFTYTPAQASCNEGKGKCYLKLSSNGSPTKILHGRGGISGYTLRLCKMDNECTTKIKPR
Sequence (P03951 388-625 limits assumed): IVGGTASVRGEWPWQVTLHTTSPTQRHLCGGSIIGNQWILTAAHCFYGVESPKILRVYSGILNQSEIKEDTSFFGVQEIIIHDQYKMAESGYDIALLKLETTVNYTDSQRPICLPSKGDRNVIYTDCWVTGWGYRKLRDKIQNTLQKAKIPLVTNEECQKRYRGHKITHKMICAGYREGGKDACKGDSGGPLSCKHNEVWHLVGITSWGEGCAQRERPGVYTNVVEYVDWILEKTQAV
Assay: Inhibition of human activated factor XI using pyro-Glu-Pro-Arg-pNA as substrate by incubated at 25 degreeC spectrophotometry
Property measured: Ki (nM)
Report the value in nM with no unit label.

# input Endpoint output: Ki of COC(=O)Nc1ccc2c(c1)NC(=O)[C@H](C)CCC[C@H](NC(=O)C1CCN(c3cccc(Cl)c3)C1)c1cc-2ccn1 (mixture of isomers) . Value?
# output 2890

# input Tell me the measured Ki of COC(=O)Nc1ccc2c(c1)NC(=O)[C@H](C)CCC[C@H](NC(=O)C1CC(=O)N(c3cccc(Cl)c3)C1)c1cc-2ccn1 (single isomer, unassigned; diastereomer B) , please.
# output 1390
